# System Under Test: olfactory receptor OR5K1 (Homo sapiens)
# Construct: expressed in transfected cells; host or cells: HEK293
# Sequence (Q8NHB7 whole entry): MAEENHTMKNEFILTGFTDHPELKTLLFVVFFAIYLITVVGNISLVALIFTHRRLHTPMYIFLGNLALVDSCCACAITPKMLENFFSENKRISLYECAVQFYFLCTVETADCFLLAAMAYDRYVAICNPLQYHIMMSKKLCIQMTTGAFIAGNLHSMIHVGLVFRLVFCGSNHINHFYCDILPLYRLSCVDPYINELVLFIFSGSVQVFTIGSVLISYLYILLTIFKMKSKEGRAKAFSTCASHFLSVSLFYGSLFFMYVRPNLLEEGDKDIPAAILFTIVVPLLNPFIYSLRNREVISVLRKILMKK
# Assay Procedure: Antagonist assay: inhibition of OR5K1 response to 2,6-dimethylpyrazine (luciferase reporter)
# Format: cell-based
# Experimental Conditions: HEK293 cells expressing OR5K1; 2,6-dimethylpyrazine 1 mM + test substance 300 μM (cytotoxic flavoring agents re-evaluated at 333 μM + 100 μM); read-out: Inhibition rate (receptor response-inhibiting rate)
Measured Parameter: inhibition at 300 µM

Would you be so kind as to report inhibition at 300 µM for each listed record?
1. CC(C=O)c1ccccc1 (stereo not shown) [hydratropic aldehyde, 2-phenyl-propionaldehyde]
2. CC(=O)c1cc(C(C)(C)C)cc2c1C=CC2(C)C [celestolide]
3. CC=Cc1ccc(OCc2ccccc2)c(OC)c1
4. CC(=O)c1c(C)c([N+](=O)[O-])c(C(C)(C)C)c([N+](=O)[O-])c1C

1. ≥ 50%
2. ≥ 40%
3. ≥ 50%
4. ≥ 40%

###

# System Under Test: olfactory receptor OR5K1 (Homo sapiens)
# Construct: expressed in transfected cells; host or cells: HEK293
# Assay Procedure: Antagonist assay: inhibition of OR5K1 response to 2,6-dimethylpyrazine (luciferase reporter)
# Assay type: cell-based
# Experimental Conditions: HEK293 cells expressing OR5K1; 2,6-dimethylpyrazine 1 mM + test substance 300 μM (cytotoxic flavoring agents re-evaluated at 333 μM + 100 μM); read-out: Inhibition rate (receptor response-inhibiting rate)
Measured Parameter: inhibition at 300 µM

Look at each molecule and report its inhibition at 300 µM.
1. CC(C)=CCC/C(C)=C/CO [geraniol, (E)-3,7-dimethyl-2,6-octadien-1-ol]
2. CC(=CCC1CC=C(C)C1(C)C)CO (stereo not drawn) [Sandalmysore Core]
3. CCC(=CCC1CC=C(C)C1(C)C)CO (stereo not drawn) [bacdanol]

1. ≥ 40%
2. ≥ 50%
3. ≥ 75%
